- TARGET DESC: recombinant human ACC1 (rhACC1) (Homo sapiens, UniProt Q13085, DEL44-44)
- Construct: recombinant baculovirus containing full length human ACC1 cDNA
- ASSAY TEXT: recombinant hACC1 Transcreener ADP detection FP assay
- CONDITION CONTEXT: 50 μM ATP, 30 μM acetyl-CoA
READOUT TYPE: IC50 (nM)

> print(dat)
                           smiles.structure  value.unit  result
1  CC(C)n1ncc2c1C(=O)CC1(CCN(C(=O)c3ccc4[nH]nc(C(N)=O)c4c3)CC1)C2          nM     7.9
2  CC(C)n1ncc2c1C(=O)CC1(CCN(C(=O)c3ccc4cc(C(N)=O)[nH]c4c3)CC1)C2          nM      13
3  CC(C)(C)n1cc2c(n1)C(=O)CC1(CCN(C(=O)c3cnc4[nH]cc(C(N)=O)c4c3)CC1)C2          nM     9.4
4  CC(C)(C)n1cc2c(n1)C(=O)CC1(CCN(C(=O)c3cnc4c(Cl)c[nH]c4c3)CC1)C2          nM     6.6
5  CC(C)n1ncc2c1C(=O)CC1(CCN(C(=O)c3ccc4ccc(N)nc4c3)CC1)C2          nM      12

A = CC(C)(C)n1cc2c(n1)C(=O)CC1(CCN(C(=O)c3ccc4[nH]c(C(N)=O)cc4c3)CC1)C2
B = CC(C)(C)n1cc2c(n1)C(=O)CC1(CCN(C(=O)c3ccc4[nH]cc(C(N)=O)c4c3)CC1)C2
Q: Higher IC50 between A and B ? Answer = label.
A: A
